Assay: probe aNog binding to arrayed compounds – biochemical, biotinylated probe, 635/667 nm fluorescence, primary screen (AID 1115);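 further: probe is biotinylated aNog protein used at 0.15 µg/mL for 1 h at 4 C; z-score combines 667 nm fluorescence of each spot with its signal to noise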
Conditions: small-molecule microarray, higher = more signal
Provide the reported composite z-score of each item.
Give bare numbers.

- compound: "O=C1OCCC=C[C@H]2OC34C=CCN(CCN5CCOCC5)C(=O)[C@H]3N(CCO)C(=O)[C@@H]4C12 (stereo partly drawn)"
  composite z-score: -0.467
- compound: "O=C1OCC=C[C@H]2OC34C=CCN(c5ccc6ccccc6c5)C(=O)[C@H]3N(CCO)C(=O)[C@@H]4[C@@H]12 (stereo partly drawn)"
  composite z-score: 0.0721
- compound: "CCCNC(=O)[C@@]1(C)c2ccccc2C(=O)N(Cc2cc(F)cc(C(F)(F)F)c2)[C@H]1c1ccc(CO)cc1"
  composite z-score: 1.03
- compound: "O=[N+]([O-])c1ccc(C[n+]2ccc(CCCO)cc2)o1"
  composite z-score: -0.278
- compound: "O=C1[C@H]2C=C(Br)[C@H](C[C@@H]2OCCOCCO)[C@@]12CO2"
  composite z-score: -0.303
- compound: "C=CCC(OC(C)=O)[C@@H]1[C@@H](N(Cc2ccc(-c3ccccc3)cc2)C(=O)c2ccc(C)cc2)c2cc(OCCCO)ccc2N1C(=O)Cc1ccc(OC)cc1 (stereo partly drawn)"
  composite z-score: -0.0579

Provide each entry's composite z-score from the list below.
1. CCCC[C@H]1OB(O)C[C@H]2C1=C(COc1ccccc1)C[C@H]1C(=O)N(Cc3ccccc3)C(=O)[C@H]12
2. CC1CC/C=C\[C@H]2OC34C=CCN(c5ccc6ccccc6c5)C(=O)[C@H]3N(CCCCCO)C(=O)[C@@H]4C2C(=O)O1 (stereo partly drawn)

1. -0.273
2. -0.119

====

Assay: forskolin-driven CRE-LacZ activity in PC12 – cell-based, CRE-LacZ reporter, forskolin-stimulated, primary screen (AID 1146);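 further: PC12 cells with 6xCRE LacZ reporter stimulated by forskolin 10 µM; beta-galactosidase reporter signal reflecting CREB driven transcription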
Settings: luminescence, 4.5 h, higher = more signal, called active from +8 up or from −8 down
Met means recorded z-score is -0.2 or above; Not met means it is below -0.2.

Use these answered entries as a reference point.
- smiles notation: "COc1ccc([Si](C)(C)[C@@H]2[C@@H](CCO)O[C@]3(C(=O)N(Cc4ccc(N5C(=O)c6cccc7cccc5c67)cc4)c4ccccc43)[C@H]2C)cc1"
  class: "Met"
- smiles notation: "CC(C)N1C(=O)c2ccccc2[C@](C)(C(=O)NCCCN(C)C)[C@@H]1c1ccc(CO)cc1"
  class: "Not met"
- smiles notation: "CCOC(=O)C1=CC[C@@H](c2ccccc2)N(S(=O)(=O)c2ccc(C)cc2)[C@H]1c1ccc(C#N)cc1"
  class: "Met"
- smiles notation: "CCCCC(=C=CC[C@H](O)c1ccccc1OCCO)C[C@H](O)c1cc(Cl)cc(Cl)c1O"
  class: "Met"
- smiles notation: "COCCOC(=O)N1C(=O)[C@@]2(c3cc(C#CCCO)ccc31)[C@H](C(=O)NC[C@H](O)c1ccccc1)[C@H]1C(=O)O[C@H](c3ccccc3)[C@H](c3ccccc3)N1[C@@H]2c1ccc(OCCO)cc1"
  class: "Not met"

Now consider the entry below.
Could you please find out whether C=CCN1C(=O)[C@@]2(O[C@@H](CCO)[C@H]([Si](C)(C)c3ccc(OC)cc3)[C@H]2C)c2cc(NC(C)=O)ccc21 has z-score that meets -0.2 or exceeds it?
Met

====

Target: Torsin-1A (Homo sapiens) (UniProt O14656)
Sequence (O14656 whole entry, looked up): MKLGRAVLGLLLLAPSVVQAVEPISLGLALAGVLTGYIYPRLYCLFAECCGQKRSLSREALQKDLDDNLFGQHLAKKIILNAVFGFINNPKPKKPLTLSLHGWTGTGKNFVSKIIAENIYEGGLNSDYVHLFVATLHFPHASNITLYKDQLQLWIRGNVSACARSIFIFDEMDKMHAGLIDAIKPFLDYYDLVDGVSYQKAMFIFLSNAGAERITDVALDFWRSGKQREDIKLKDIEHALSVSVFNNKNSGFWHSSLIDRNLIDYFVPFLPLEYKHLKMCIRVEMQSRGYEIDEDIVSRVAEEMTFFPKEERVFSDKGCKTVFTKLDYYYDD
Assay: TOR1A wild-type binding on microarray – cell lysate, small-molecule microarray, lysate, 635/667 nm, primary screen (AID 1149)
Details: COS7 hTOR1A-WT lysate, 635 nm fluorescence, higher = more signal
reported metric: composite z-score
Numbers only.

- molecule: "[N-]=[N+]=NCc1ccccc1C[C@]1(C(N)=O)N=C(c2ccc(OCCCO)cc2)O[C@H]1c1ccccc1N=[N+]=[N-]"
  study system: "Torsin-1A (Homo sapiens) (UniProt O14656)"
  composite z-score: 0.0331
- molecule: "C=C(CCCC)C(=O)CC[C@H](OC(C)=O)c1ccc(CO)o1"
  study system: "Torsin-1A (Homo sapiens) (UniProt O14656)"
  composite z-score: -0.423
- molecule: "Cc1ccc(N2C(=O)c3ccccc3[C@@H](C(=O)NCC(C)C)[C@@H]2c2ccc(CO)cc2)nc1"
  study system: "Torsin-1A (Homo sapiens) (UniProt O14656)"
  composite z-score: -1.67
- molecule: "CCCCCCC#C[Si](O[C@H](c1ccccc1)c1cn([C@H](C)c2ccccc2)nn1)(C(C)C)C(C)C"
  study system: "Torsin-1A (Homo sapiens) (UniProt O14656)"
  composite z-score: 0.381

Provide each entry's composite z-score from the list below.
1. COc1ccc([Si](C)(C)[C@@H]2[C@@H](CC(=O)N3Cc4ccccc4C[C@H]3CO)O[C@]3(C(=O)N(Cc4cccc(N5C(=O)COc6ccccc65)c4)c4ccccc43)[C@H]2C)cc1
2. C=CCN1C(=O)[C@@]2(O[C@@H](CCO)[C@H]([Si](C)(C)c3ccc(OC)cc3)[C@H]2C)c2cc(N3C(=O)COc4ccccc43)ccc21
3. CC(C)C(O)C1C=CC2C(=O)N(C)C(=O)C2N1N1CCCCC1 (stereo not given)
4. CC(C)(C)OC(=O)CC[C@]1(C(=O)NCC(O)CO)N=C(c2ccc(OCCCO)cc2)O[C@H]1c1ccccc1CN=[N+]=[N-] (stereo not given in full)

1. 0.718
2. -0.048
3. -0.0881
4. 0.399

====

Assay: binders from COS7 lysate, DM2A8 probe, primary screen, torsin A project, cell lysate, small-molecule microarray, fluorescence 635/667 (AID 1065)
Details: higher = more signal, COS7 lysate expressing mutant human TOR1A
Provide the reported composite z-score of each item.
Answers are plain numbers.

- compound: "CC(c1ccccc1)C(O)C1C=CC2C(=O)N(c3ccccc3)C(=O)C2N1Nc1ccccc1F (stereo not drawn)"
  reported metric: "composite z-score"
  readout number: 0.267
- compound: "NC(=O)NCC#Cc1ccc2c(c1)[C@]1(C(=O)N2)[C@H](C(=O)NC[C@H](O)c2ccccc2)[C@H]2C(=O)O[C@H](c3ccccc3)[C@H](c3ccccc3)N2[C@@H]1c1ccccc1OCCO"
  reported metric: "composite z-score"
  readout number: 0.0051

// next item, composite z-score requested
I'd like to know its composite z-score. The compound in question is O=C1NC(=O)C2C1C=CC(C(O)c1cccs1)N2Nc1ccccn1 (stereo not drawn)
-0.133

====

Test: blood-stage malaria parasite viability loss – strain 3D7, DAPI fluorescence, 100 nL, primary screen (AID 1184);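 further: parasites grown inside human red blood cells in medium with human serum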
Details: P. falciparum 3D7 growth, 3 d, higher = more signal
reported metric: z-score
Answers are plain numbers.

Provide each entry's z-score from the list below.
1. CC(C)N1C(=O)c2ccccc2[C@](C)(C(=O)NC2CC2)[C@@H]1c1ccc(CO)cc1
2. COc1c(C)cc(-c2cc3c(c(-c4ccccc4)n2)[Si](C(C)C)(C(C)C)O[C@H]3c2ccccc2)cc1C
3. [N-]=[N+]=Nc1ccccc1[C@@H]1OC(c2ccc(OCCCO)cc2)=N[C@]1(CCS(=O)(=O)c1ccccc1)C(=O)N1CCCCC1
4. CN1C(=O)C2C=CC(C(O)c3ccc(Br)cc3)N(Nc3ccccc3)C2C1=O (configuration not stated)
5. CO[C@H]1O[C@H](CO)[C@@H](OC(=O)Nc2ccc3c(c2)OCO3)[C@H](OC(=O)Nc2ccc3c(c2)OCO3)[C@H]1OC(=O)Nc1ccc2c(c1)OCO2
6. CC1CC/C=C\[C@H]2OC34C=CCN(c5ccc6ccccc6c5)C(=O)[C@H]3N(CCCCCO)C(=O)[C@@H]4C2C(=O)O1 (some centres not stated)
7. COc1ccc([Si](C)(C)[C@H]2[C@H](CC(=O)N3CCC[C@H]3CO)O[C@@]3(C(=O)N(c4ccccc4)c4ccccc43)[C@@H]2C)cc1

[-0.335, -2.88, -2.23, 0.672, -2.1, -0.0643, -0.887]

====

Test system: Neuregulin-1 EGF-like domain
Experiment: small molecules binding NRG1 EGF domain – biochemical, small-molecule microarray, 635 nm fluorescence, primary screen (AID 1081);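 further: binding of the protein to compounds printed on small-molecule microarray slides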
Conditions: higher = more signal
reported metric: composite z-score
Numbers only.

Here's what some known entries look like.
- molecule: "Cc1ccc(S[C@]2(C(=O)NCCN3CCOCC3)CC(=O)N(C3CCCCC3)[C@@H]2c2ccc(CO)cc2)cc1"
  composite z-score: 1.09
- molecule: "COCCn1c(C(=O)N2CCCC2)cc2c1C[C@H]1CN(C(=O)c3ccccc3)[C@@](Cc3ccc(OC)cc3)(C(=O)OC)[C@@H]21"
  composite z-score: 0.905

Provide each entry's composite z-score from the list below.
1. C=CCOC(=O)[C@H]1[C@@H]2C(=O)O[C@@H](c3ccccc3)[C@@H](c3ccccc3)N2[C@@H](c2ccc(OCCOC(=O)[C@@H]3C[C@@H]4C(=O)NCC(=O)N4[C@@H]3c3ccc(O)cc3)cc2)[C@]12C(=O)Nc1ccc(I)cc12
2. CCOC1=C2C(c3ccc(C)cc3)N(S(=O)(=O)c3ccc(C)cc3)CC2n2c(=O)n(-c3ccccc3)c(=O)n2C1 (stereo unspecified)
3. O=C1O[C@H](c2ccccc2)[C@H](c2ccccc2)N2[C@H]1[C@@H](C(=O)N1CCCCCCC1)[C@]1(C(=O)Nc3ccc(C#CC4=CCCCC4)cc31)[C@H]2c1ccc(O)cc1

1.27
0.0031
1.54

I'd like to know its composite z-score. The molecule in question is COc1cc(NN2C(C(O)c3ccccc3)C=CC3C(=O)N(c4ccccc4)C(=O)C32)cc(OC)c1OC (stereo unspecified)
1.38
